Entries annotated with measured AC50
- target under test: Alpha-2A adrenergic receptor (Homo sapiens, UniProt P08913); note: assay procedure not described here
- Sequence (P08913 whole entry): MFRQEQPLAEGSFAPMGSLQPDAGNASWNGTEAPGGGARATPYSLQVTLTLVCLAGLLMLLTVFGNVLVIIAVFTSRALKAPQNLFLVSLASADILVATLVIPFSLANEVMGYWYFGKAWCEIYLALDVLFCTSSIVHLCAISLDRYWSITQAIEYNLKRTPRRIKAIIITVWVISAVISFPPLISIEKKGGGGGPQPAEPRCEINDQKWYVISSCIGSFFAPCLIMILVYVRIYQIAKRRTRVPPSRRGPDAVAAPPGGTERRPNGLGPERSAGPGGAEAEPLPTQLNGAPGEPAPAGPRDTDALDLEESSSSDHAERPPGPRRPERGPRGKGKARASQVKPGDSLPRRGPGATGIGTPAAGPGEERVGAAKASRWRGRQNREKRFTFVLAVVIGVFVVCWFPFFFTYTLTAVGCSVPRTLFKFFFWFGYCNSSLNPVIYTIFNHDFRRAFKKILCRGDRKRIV
- Format: functional, cell-based

// below: answered compounds
>  <compound>
CC(=O)O[C@H]1C[C@@H]2CC[C@@H]3[C@H](CC[C@@]4(C)[C@H]3C[C@H]([N+]3(C)CCCCC3)[C@@H]4OC(C)=O)[C@@]2(C)C[C@@H]1[N+]1(C)CCCCC1 [PANCURONIUM]

>  <AC50>
> 10 µM

$$$$
>  <compound>
CC(C)OC(=O)C(C(=O)OC(C)C)=C1SC=CS1 [MALOTILATE]

>  <AC50>
> 30 µM

$$$$
>  <compound>
CS(=O)(=O)OCCCCOS(C)(=O)=O [BUSULFAN]

>  <AC50>
> 30 µM

$$$$
>  <compound>
Clc1ccc2c(c1)C(c1ccccc1)=NCc1nncn1-2 [ESTAZOLAM]

>  <AC50>
> 10 µM

$$$$
>  <compound>
CC(/C=C1\SC(=S)N(CC(=O)O)C1=O)=C\c1ccccc1

>  <AC50>
> 30 µM

$$$$

Q) Need AC50 of CCN(CC)CC(=O)Oc1ccc(NC(C)=O)cc1 [PROPACETAMOL] , thanks.
A) > 30 µM

Q) Need AC50 of NCCCC(O)(P(=O)(O)O)P(=O)(O)O [ALENDRONIC ACID] , thanks.
A) > 10 µM

###

- target under test: Voltage-gated inwardly rectifying potassium channel KCNH2 (Homo sapiens); note: assay procedure not described here
- Sequence (Q12809 whole entry): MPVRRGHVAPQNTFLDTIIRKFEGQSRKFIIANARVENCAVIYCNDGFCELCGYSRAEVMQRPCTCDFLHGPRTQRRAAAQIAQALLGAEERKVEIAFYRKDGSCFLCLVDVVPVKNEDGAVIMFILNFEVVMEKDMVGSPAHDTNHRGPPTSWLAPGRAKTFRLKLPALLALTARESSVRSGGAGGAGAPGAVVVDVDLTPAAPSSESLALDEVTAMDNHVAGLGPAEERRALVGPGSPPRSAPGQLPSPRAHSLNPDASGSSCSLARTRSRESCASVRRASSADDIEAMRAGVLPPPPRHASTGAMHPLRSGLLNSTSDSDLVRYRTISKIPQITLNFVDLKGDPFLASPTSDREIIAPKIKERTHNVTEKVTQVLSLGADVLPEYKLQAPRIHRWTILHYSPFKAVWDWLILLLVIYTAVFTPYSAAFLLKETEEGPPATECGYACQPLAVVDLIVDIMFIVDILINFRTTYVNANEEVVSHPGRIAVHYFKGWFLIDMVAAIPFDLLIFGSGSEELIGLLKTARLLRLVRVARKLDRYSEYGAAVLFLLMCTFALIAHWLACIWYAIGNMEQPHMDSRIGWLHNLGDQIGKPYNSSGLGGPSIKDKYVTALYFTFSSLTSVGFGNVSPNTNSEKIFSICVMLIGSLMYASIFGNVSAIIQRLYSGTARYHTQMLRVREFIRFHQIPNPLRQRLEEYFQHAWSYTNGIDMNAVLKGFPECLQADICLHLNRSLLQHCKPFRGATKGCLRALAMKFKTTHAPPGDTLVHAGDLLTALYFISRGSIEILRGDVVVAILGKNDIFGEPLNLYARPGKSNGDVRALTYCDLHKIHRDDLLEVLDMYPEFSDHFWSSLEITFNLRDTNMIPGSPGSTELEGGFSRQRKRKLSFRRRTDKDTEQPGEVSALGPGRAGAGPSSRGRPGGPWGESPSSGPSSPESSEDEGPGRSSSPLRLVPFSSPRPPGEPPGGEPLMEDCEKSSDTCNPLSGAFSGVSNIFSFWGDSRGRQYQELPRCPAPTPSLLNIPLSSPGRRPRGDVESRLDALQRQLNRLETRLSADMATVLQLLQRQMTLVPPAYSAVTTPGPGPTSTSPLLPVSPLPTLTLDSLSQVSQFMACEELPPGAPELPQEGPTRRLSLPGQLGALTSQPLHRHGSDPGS
- Type: functional
- condition summary: read-out: AC50
measure: AC50

>  <compound>
CC(=O)OCC(CCn1cnc2cnc(N)nc21)COC(C)=O

>  <AC50>
> 30 µM

$$$$
>  <compound>
CC(=O)OCC[N+](C)(C)C

>  <AC50>
> 30 µM

$$$$
>  <compound>
C[C@@H](O)[C@H]1C(=O)N2C(C(=O)[O-])=C(SC3Cn4cnc[n+]4C3)[C@H](C)[C@H]12 (stereo partly drawn)

>  <AC50>
> 30 µM

$$$$
>  <compound>
C=C[C@@]1(C)CC(=O)[C@]2(O)[C@@]3(C)[C@@H](O)CCC(C)(C)[C@@H]3[C@H](OC(=O)CCN(C)C)[C@H](OC(C)=O)[C@@]2(C)O1

>  <AC50>
7.8 µM

$$$$

Q) Need AC50 of CCCCCCOC(=O)CCC(=O)CN [HEXAMINOLEVULINATE] , thanks.
A) > 30 µM

Q) Need AC50 of CC(C1=C(CCN(C)C)Cc2ccccc21)c1ccccn1 (stereo not drawn) , thanks.
A) 2.7 µM

Q) Need AC50 of Oc1c(I)cc(Cl)c2cccnc12 , thanks.
A) > 30 µM

Q) Need AC50 of CC1(C)C(/C=C/C=C/C=C/C=C2\N(CCCCS(=O)(=O)O)c3ccc4ccccc4c3C2(C)C)=[N+](CCCCS(=O)(=O)[O-])c2ccc3ccccc3c21 [INDOCYANINE GREEN ACID FORM] , thanks.
A) 6.5 µM

###

Entries annotated with measured AC50
- target under test: 5-hydroxytryptamine receptor 2C (Homo sapiens, UniProt P28335); note: assay procedure not described here
- Sequence (P28335 whole entry): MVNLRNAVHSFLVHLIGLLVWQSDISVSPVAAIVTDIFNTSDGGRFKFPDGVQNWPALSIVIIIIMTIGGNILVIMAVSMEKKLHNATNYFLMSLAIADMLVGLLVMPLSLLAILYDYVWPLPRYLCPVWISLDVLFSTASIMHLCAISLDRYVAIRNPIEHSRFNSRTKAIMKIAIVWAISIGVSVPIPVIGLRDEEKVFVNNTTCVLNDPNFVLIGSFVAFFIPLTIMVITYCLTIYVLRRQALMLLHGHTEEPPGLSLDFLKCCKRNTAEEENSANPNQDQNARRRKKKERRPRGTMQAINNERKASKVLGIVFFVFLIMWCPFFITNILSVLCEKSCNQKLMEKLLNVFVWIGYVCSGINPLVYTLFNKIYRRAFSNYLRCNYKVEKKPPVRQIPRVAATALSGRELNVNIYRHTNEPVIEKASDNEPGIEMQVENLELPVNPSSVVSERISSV

// below: answered compounds
>  <compound>
CN(c1nccc(=O)[nH]1)C1CCN(c2nc3ccccc3n2Cc2ccc(F)cc2)CC1 [MIZOLASTINE]

>  <AC50>
> 10 µM

$$$$
>  <compound>
COc1ccc(C(CN(C)C)C2(O)CCCCC2)cc1 (stereo not drawn) [VENLAFAXINE]

>  <AC50>
> 30 µM

$$$$
>  <compound>
CCN(CC)C(=O)C1CN2CCc3cc(OC)c(OC)cc3C2CC1OC(C)=O (stereo not drawn) [BENZQUINAMIDE]

>  <AC50>
17 µM

$$$$
>  <compound>
CC(=O)Nc1c(I)c(C(=O)N[C@H]2C(O)O[C@H](CO)[C@@H](O)[C@@H]2O)c(I)c(N(C)C(C)=O)c1I (stereo partly drawn) [METRIZAMIDE]

>  <AC50>
> 30 µM

$$$$
>  <compound>
C#C[C@]1(O)CC[C@H]2[C@@H]3CCC4=CC(=O)CCC4=C3C=C[C@@]21CC [GESTRINONE]

>  <AC50>
> 30 µM

$$$$

Q) Need AC50 of O=c1oc2ccccc2c(O)c1Cc1c(O)c2ccccc2oc1=O [DICUMAROL] , thanks.
A) > 30 µM

Q) Need AC50 of CCCCC[C@H](O)/C=C/[C@H]1[C@H](O)CC(=O)[C@@H]1C/C=C\CCCC(=O)O [DINOPROSTONE] , thanks.
A) > 30 µM

Q) Need AC50 of Nc1ccn([C@@H]2O[C@H](CO)[C@@H](O)C2(F)F)c(=O)n1 [GEMCITABINE] , thanks.
A) > 30 µM
